- System: MDA-MB-435
- experiment: NCI tumour cell line growth inhibition, 48 h
Activity calls are given as the source filed them. No stated cut-off is given here; in the data, active = GI50 up to about 1.1 µM and inactive = higher.
readout: GI50

Would you please look over these solved cases?
{"compound": "COc1ccc(C(=O)c2sc(Nc3ccc(Cl)cc3)nc2N)cc1", "GI50": "2.2 µM (inactive)"}
{"compound": "O=C1C=C(Nc2ccc(Br)cc2)c2ccccc2/C1=N/O", "GI50": "1.83 µM (inactive)"}
{"compound": "Cc1ccc(S(=O)(=O)N2CCN(S(=O)(=O)c3ccc(C)cc3)CCN(S(=O)(=O)c3ccc(C)cc3)Cc3cc(Br)c(Br)cc3CN(S(=O)(=O)c3ccc(C)cc3)CC2)cc1", "GI50": "> 100 µM (inactive)"}
{"compound": "COc1ccc(C(OCC2OC(n3cnc4c(=O)n(Cc5ccccc5[N+](=O)[O-])nnc43)C(O)C2O)(c2ccccc2)c2ccc(OC)cc2)cc1 (configuration not stated)", "GI50": "10.4 µM (inactive)"}
{"compound": "COc1ccc(C(=O)Cn2c(C(=O)/C=C/c3ccco3)nc3ccccc32)cc1", "GI50": "24.4 µM (inactive)"}

// query GI50 value for entry `COC(=O)/N=[N+](\[O-])C(c1ccccc1)c1ccccc1`
31 µM (inactive)

Please look up its GI50: `OCCc1ccsc1-c1sc(-c2cc(CCO)c(-c3sccc3CCO)s2)cc1CCO`
17.7 µM (inactive)

Please report the recorded GI50 for `COC(=O)c1cc(C#N)[nH]c1-c1ccsc1` .
> 100 µM (inactive)

Entry CCOC(=O)C1(C(C)=O)OC(=O)c2cnccc21 (configuration not stated) : reported GI50 = ?
> 100 µM (inactive)

If you can, please state the reported GI50 value of `CCN(CC)CCNc1ccc2ncn3c4c(OC)ccc(O)c4c(=O)c1c23` .
24.9 µM (inactive)

If you can, please state the reported GI50 value of `Nc1sccc1S(=O)(=O)c1ccsc1N` .
> 100 µM (inactive)

Please give the measured GI50 for this compound: Cc1cc2c(cc1-c1cc3c(cc1C)C(C(C)C)=C(O)C(=O)/C3=C\NCC1CCCN3CCCCC13)/C(=C/NCC1CCCN3CCCCC13)C(=O)C(O)=C2C(C)C (configuration not stated)
7.62 µM (inactive)

Given the compound CN(N=O)C(=O)N[C@H]1C(O)O[C@H](CO)[C@@H](O)[C@@H]1O (some centres not stated) , what is its reported GI50?
515 µM (inactive)

Which value of GI50 has been reported for `O=c1oc(-c2ccccc2)c(-c2ccccc2)n1-c1ccc(Br)cc1` in the records?
> 100 µM (inactive)

###

- Test system: OVCAR-3
- experiment: NCI tumour cell line growth inhibition, 48 h
Active and inactive are the calls of the source. Cut-off read from the data, not from the text of the source: active = GI50 up to about 1.1 µM and inactive = higher.
readout: GI50

{"molecule": "COc1ccc(/C=C2\\CCC(CCN(C)C)(C3=CCCC3)C2=O)cc1Br (stereo not drawn)", "assay result": "5.74 µM (inactive)"}

What GI50 value was documented for this molecule, CC(C)(C)C(=O)OCC1CCC[N+]2(C)CCCCC12 (stereo not drawn) ?
> 100 µM (inactive)

Need GI50 of [O-][S+]1c2ccccc2N=C(c2cccc3ccccc23)CC1c1cccc2ccccc12 (stereo not drawn) , thanks.
19.1 µM (inactive)

Need GI50, item `COc1cc(CNc2nc3c(NC(C)=O)cc(C(F)(F)F)cc3nc2-c2ccccc2)cc(OC)c1OC`
> 100 µM (inactive)
